- Test system: Cyp1a2 mRNA in liver
- assayProtocol: Cyp1a2 gene expression in liver (real-time PCR)
- Assay type: in vivo, female C57BL/6 mice
- statedConditions: relative to TCDD; dose metric Syst liver (ng/g lipid)
Everything with REP Liver Cyp1a2 mRNA lower than 0.03 is condition not met; everything else, including exactly 0.03, is condition met.

[
  {
    "compound": "Clc1ccc(-c2cc(Cl)c(Cl)c(Cl)c2)cc1Cl [PCB-126, 3,3´,4,4´,5-pentachlorobiphenyl]",
    "targetUnderTest": "Cyp1a2 mRNA in liver",
    "categoryLabel": "condition not met"
  },
  {
    "compound": "Clc1ccc(-c2cc(Cl)c(Cl)cc2Cl)cc1Cl [PCB-118, 2,3´,4,4´,5-pentachlorobiphenyl]",
    "targetUnderTest": "Cyp1a2 mRNA in liver",
    "categoryLabel": "condition not met"
  },
  {
    "compound": "Clc1cc2c(cc1Cl)Oc1cc(Cl)c(Cl)cc1O2 [TCDD, 2,3,7,8-tetrachlorodibenzodioxin, reference compound]",
    "targetUnderTest": "Cyp1a2 mRNA in liver",
    "categoryLabel": "condition met"
  },
  {
    "compound": "Clc1ccc(-c2cc(Cl)c(Cl)c(Cl)c2Cl)cc1Cl [PCB-156, 2,3,3´,4,4´,5-hexachlorobiphenyl]",
    "targetUnderTest": "Cyp1a2 mRNA in liver",
    "categoryLabel": "condition not met"
  },
  {
    "compound": "Clc1cc2c(cc1Cl)Oc1c(cc(Cl)c(Cl)c1Cl)O2 [PeCDD, 1,2,3,7,8-pentachlorodibenzodioxin]",
    "targetUnderTest": "Cyp1a2 mRNA in liver",
    "categoryLabel": "condition met"
  }
]
